Measured Plat accompanies every entry in the list below.
species: Rattus norvegicus; test: Open TG-GATES - Regimen: Single; type: toxicity, organism-based, Sprague-Dawley; parameters: regimen Single, gender Male, age 6 weeks; settings: in vivo, po, 0 mg/kg, 24 h, tissue Blood, route gavage, dose level Control
PROPERTY: Plat (x10_4/uL)

1) CSc1ccc2c(c1)N(CCC1CCCCN1C)c1ccccc1S2 (stereo not drawn)    107.1
2) CCc1cc(C(N)=S)ccn1 [ETHIONAMIDE]    117.8
3) CN(C)CCC=C1c2ccccc2CCc2ccccc21    110
4) CC(=O)Oc1ccccc1C(=O)O    132
5) NC(=O)N1c2ccccc2C=Cc2ccccc21 [CARBAMAZEPINE]    117.9
6) COc1ccc(Cc2nccc3cc(OC)c(OC)cc23)cc1OC    106.2
7) Cn1c(=O)c2[nH]cnc2n(C)c1=O.O    115.8
8) Clc1ccccc1CN1CCc2sccc2C1    130.5
9) COc1cc2c(c3oc(=O)c4c(c13)CCC4=O)[C@@H]1C=CO[C@@H]1O2    118.1
10) C[C@H](CS)C(=O)N1CCC[C@H]1C(=O)O    115.5
11) NC(=O)N/N=C/c1ccc([N+](=O)[O-])o1    111.2
12) O=C(O)c1cc(/N=N/c2ccc(S(=O)(=O)Nc3ccccn3)cc2)ccc1O    117.1
13) O=C(O)c1cn(C2CC2)c2cc(N3CCNCC3)c(F)cc2c1=O    103.8

----------
species: Rattus norvegicus; test: Open TG-GATES - Regimen: Single; format: toxicity, organism-based, Sprague-Dawley; set-up: regimen Single, gender Male, age 6 weeks; settings: in vivo, po, 0 mg/kg, 3 h, tissue Plasma, route gavage, dose level Control
Measured gamma-GTP accompanies every entry in the list below.
PROPERTY: gamma-GTP (IU/L)

1. CCc1cc(C(N)=S)ccn1 [ETHIONAMIDE]    1
2. NC(=O)N1c2ccccc2C=Cc2ccccc21 [CARBAMAZEPINE]    0.8
3. O=C(O)c1cn(C2CC2)c2cc(N3CCNCC3)c(F)cc2c1=O [CIPROFLOXACIN]    1.8
4. O=C(O)c1cc(/N=N/c2ccc(S(=O)(=O)Nc3ccccn3)cc2)ccc1O [SULFASALAZINE]    1.4
5. CSc1ccc2c(c1)N(CCC1CCCCN1C)c1ccccc1S2 (stereo not drawn) [THIORIDAZINE]    0.8
6. CC(=O)Oc1ccccc1C(=O)O [ASPIRIN]    1.2
7. NC(=O)N/N=C/c1ccc([N+](=O)[O-])o1 [NITROFURAZONE]    1.2
8. Clc1ccccc1CN1CCc2sccc2C1 [TICLOPIDINE]    1.2
9. COc1ccc2c(c1)c(CC(=O)O)c(C)n2C(=O)c1ccc(Cl)cc1 [INDOMETHACIN]    1.2
10. CN(C)CCC=C1c2ccccc2CCc2ccccc21 [AMITRIPTYLINE]    1
11. Cn1c(=O)c2[nH]cnc2n(C)c1=O.O [THEOPHYLLINE]    1.2
12. C[C@H](CS)C(=O)N1CCC[C@H]1C(=O)O [CAPTOPRIL]    1.6
13. COc1ccc(Cc2nccc3cc(OC)c(OC)cc23)cc1OC [PAPAVERINE]    2

----------
organism: Rattus norvegicus; assay: Open TG-GATES - Regimen: Single; assay type: toxicity, organism-based, Sprague-Dawley; design: regimen Single, gender Male, age 6 weeks; conditions: in vivo, po, 0 mg/kg, 24 h, tissue Plasma, route gavage, dose level Control
Measured TBIL accompanies every entry in the list below.
PROPERTY: TBIL (mg/dL)

1. COc1cc2c(c3oc(=O)c4c(c13)CCC4=O)[C@@H]1C=CO[C@@H]1O2 [AFLATOXIN]    0
2. Cn1c(=O)c2[nH]cnc2n(C)c1=O.O [THEOPHYLLINE]    0.008
3. Clc1ccccc1CN1CCc2sccc2C1 [TICLOPIDINE]    0.1
4. CN(C)CCC=C1c2ccccc2CCc2ccccc21 [AMITRIPTYLINE]    0.054
5. NC(=O)N1c2ccccc2C=Cc2ccccc21 [CARBAMAZEPINE]    0.1

----------
organism: Rattus norvegicus; test: Open TG-GATES - Regimen: Single; type: toxicity, organism-based, Sprague-Dawley; design: regimen Single, gender Male, age 6 weeks; conditions: in vivo, po, 0 mg/kg, 3 h, tissue Blood, route gavage, dose level Control
Param threshold (100 x10_2/uL) applies to WBC; output MET when value >= threshold, NOT MET when value < threshold.

1) NC(=O)N1c2ccccc2C=Cc2ccccc21 [CARBAMAZEPINE]    MET
2) COc1ccc(Cc2nccc3cc(OC)c(OC)cc23)cc1OC [PAPAVERINE]    MET
3) O=C(O)c1cn(C2CC2)c2cc(N3CCNCC3)c(F)cc2c1=O [CIPROFLOXACIN]    MET
4) O=C(O)c1cc(/N=N/c2ccc(S(=O)(=O)Nc3ccccn3)cc2)ccc1O [SULFASALAZINE]    NOT MET

----------
organism: Rattus norvegicus; assay: Open TG-GATES - Regimen: Daily Repeat; type: toxicity, organism-based, Sprague-Dawley; set-up: regimen Daily Repeat, gender Male, age 6 weeks; settings: in vivo, po, 0 mg/kg, […], tissue Plasma, route gavage, dose level Control, time 28 day
Measured Na accompanies every entry in the list below.
PROPERTY: Na (meq/L)

1. CN(C)CCC=C1c2ccccc2CCc2ccccc21 [AMITRIPTYLINE]    143
2. Cn1c(=O)c2[nH]cnc2n(C)c1=O.O [THEOPHYLLINE]    142.4
3. COc1ccc2c(c1)c(CC(=O)O)c(C)n2C(=O)c1ccc(Cl)cc1 [INDOMETHACIN]    139.2
4. NC(=O)N/N=C/c1ccc([N+](=O)[O-])o1 [NITROFURAZONE]    145.2
5. C[C@H](CS)C(=O)N1CCC[C@H]1C(=O)O [CAPTOPRIL]    139.8
6. O=C(O)c1cc(/N=N/c2ccc(S(=O)(=O)Nc3ccccn3)cc2)ccc1O [SULFASALAZINE]    141.2
7. CSc1ccc2c(c1)N(CCC1CCCCN1C)c1ccccc1S2 (stereo not given) [THIORIDAZINE]    139.4
8. O=C(O)c1cn(C2CC2)c2cc(N3CCNCC3)c(F)cc2c1=O [CIPROFLOXACIN]    140.2
9. NC(=O)N1c2ccccc2C=Cc2ccccc21 [CARBAMAZEPINE]    141
10. Clc1ccccc1CN1CCc2sccc2C1 [TICLOPIDINE]    141.6
11. COc1ccc(Cc2nccc3cc(OC)c(OC)cc23)cc1OC [PAPAVERINE]    141.4
12. CCc1cc(C(N)=S)ccn1 [ETHIONAMIDE]    140.4
13. CO[C@H]1/C=C/O[C@@]2(C)Oc3c(C)c(O)c4c(O)c(c(/C=N/N5CCN(C)CC5)c(O)c4c3C2=O)NC(=O)/C(C)=C\C=C\[C@H](C)[C@H](O)[C@@H](C)[C@@H](O)[C@@H](C)[C@H](OC(C)=O)[C@@H]1C [RIFAMPIN]    140.6
14. CC(=O)Oc1ccccc1C(=O)O [ASPIRIN]    141
15. CCCC(CCC)C(=O)O [VALPROIC ACID]    140.2

----------
Measured Na accompanies every entry in the list below.
organism: Rattus norvegicus; assay: Open TG-GATES - Regimen: Single; type: toxicity, organism-based, Sprague-Dawley; set-up: regimen Single, gender Male, age 6 weeks; conditions: in vivo, po, 300 mg/kg, 3 h, tissue Plasma, route gavage, dose level Middle
PROPERTY: Na (meq/L)

1) CCc1cc(C(N)=S)ccn1 [ETHIONAMIDE]    141.2
2) O=C(O)c1cn(C2CC2)c2cc(N3CCNCC3)c(F)cc2c1=O    138.8
3) C[C@H](CS)C(=O)N1CCC[C@H]1C(=O)O    138
4) O=C(O)c1cc(/N=N/c2ccc(S(=O)(=O)Nc3ccccn3)cc2)ccc1O    140.6
5) Clc1ccccc1CN1CCc2sccc2C1    141

----------
species: Rattus norvegicus; assay: Open TG-GATES - Regimen: Single; assay type: toxicity, organism-based, Sprague-Dawley; set-up: regimen Single, gender Male, age 6 weeks; details: in vivo, po, 1000 mg/kg, 6 h, route gavage, dose level High
PROPERTY: TERMINAL_BW (g)

1. Clc1ccccc1CN1CCc2sccc2C1 [TICLOPIDINE]    211.9
2. C[C@H](CS)C(=O)N1CCC[C@H]1C(=O)O [CAPTOPRIL]    215.6
3. CCc1cc(C(N)=S)ccn1 [ETHIONAMIDE]    227.1
4. O=C(O)c1cc(/N=N/c2ccc(S(=O)(=O)Nc3ccccn3)cc2)ccc1O [SULFASALAZINE]    208.9
5. O=C(O)c1cn(C2CC2)c2cc(N3CCNCC3)c(F)cc2c1=O [CIPROFLOXACIN]    179.7
